# System: antibodies in sera from SARS patients (sera 1a, 1b, 2, 6, 37, 62, London, SARS-yellow, SARS-green)
# Format: binding, human
# Set-up: unit not given here
Outcome Measure: Binding of serum 6 to linear peptides of protein X1 of SARS-CoV Urbani

> print(dat)
              chain  value.observed
 1  LLFVTIYSHLLLVAA             0.4
 2  IENATFFIFNKLVKD             0.3
 3  LLYDANYFVCWHTHN             0.7
 4  IPYNSVTDTIVVTEG             0.4
 5  TDTGIENATFFIFNK             0.7
 6  WQLALYKGFQFICNL             0.5
 7  NVQIHTIDGSSGVAN             0.4
 8  MDLFMRFFTLGSITA             0.5
 9  TKIIALNKRWQLALY             1.0
10  IGVAFLAVFQSATKI             0.5
11  YVVVHGYFTEVYYQL             0.3
12  DTIVVTEGDGISTPK             0.4
13  WKCKSKNPLLYDANY             0.7
14  FQFICNLLLLFVTIY             0.3
15  VVHGYFTEVYYQLES             0.3
16  NKRWQLALYKGFQFI             0.8
17  QSATKIIALNKRWQL             0.7
18  VIGVAFLAVFQSATK             0.4

###

Entries and their Binding of serum 1a to looped/cyclic peptides of protein X2 of SARS-CoV Urbani values follow.
# System: antibodies in sera from SARS patients (sera 1a, 1b, 2, 6, 37, 62, London, SARS-yellow, SARS-green)
# Assay type: binding, human
Outcome Measure: Binding of serum 1a to looped/cyclic peptides of protein X2 of SARS-CoV Urbani

> print(dat)
              chain  value.observed
 1  MCKYTQSTALQELLI             0.6
 2  LSLLKVTAFQHQNSK             0.3
 3  YTQSTALQELLIQQW             0.6
 4  MLHSSSLTSLLKTHR             0.5
 5  ALQELLIQQWIQFMM             0.7
 6  QQWIQFMMSRRRLLA             0.6
 7  SRRRLLACLCKHKKV             0.2
 8  KKVSTNLCTHSFRKK             0.5
 9  YMAISPKFTTSLSLH             0.6
10  RLLACLCKHKKVSTN             0.3
11  LKVTAFQHQNSKKTT             0.3
12  KFTTSLSLHKLLQTL             0.5
13  TMSLYMAISPKFTTS             0.6
14  HKKVSTNLCTHSFRK             0.6
15  SLTSLLKTHRMCKYT             0.3
16  LTSLLKTHRMCKYTQ             0.4
17  MMSRRRLLACLCKHK             0.2
18  MTTVYHITVSQIQLS             0.5

Where do the numbers come from? From patent US20070128217A1.
